test system: c-Src; test: phosphorylation enrichment, bacterial display (enrichment ratio); higher = better substrate or ligand; peptides without Tyr show the background;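 also: 11-residue human phosphosite peptides and single-mutation variants displayed on the E. coli surface, counted by deep sequencing, each peptide's frequency after selection divided by its frequency in the unselected input library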;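 also: frequency after pTyr selection over input frequency; kinase dosed for 20-30% of maximal phosphorylation in three min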
PARAMETER MEASURED: phosphorylation enrichment
// return a plain number; no unit text

                       sequence_entry          parameter_measured  recorded_number
0  GDPTEYFITAI [IGSF22_Y501_S503I_YF]  phosphorylation enrichment            0.555
1            ISKQEYDEAGP [ACTC1_Y364]  phosphorylation enrichment            0.598
2  MGSFNYLGFAW [SPTLC2_Y178_R183W_YF]  phosphorylation enrichment             0.72
3             SKNYTYIWWLN [PSG4_Y271]  phosphorylation enrichment            0.273
4   NLVSEYQQFQD [TUBB3_Y422_D417N_YF]  phosphorylation enrichment            0.698

Req: Sample CEHFSYYGMKA [SLC15A2_Y60_R57H] — what was its phosphorylation enrichment?
Resp: 2.37

Req: Sample GARGRYIMGGP [TNK1_Y277_V278I] — what was its phosphorylation enrichment?
Resp: 0.522

Req: Sample GRLVEYDIDEV [SMS_Y134] — what was its phosphorylation enrichment?
Resp: 0.563

Req: Sample QDLLLYQTHSE [PKHD1_Y255_F253L] — what was its phosphorylation enrichment?
Resp: 1.77

Req: Sample DKTGEYPVPLI [ACADM_Y73] — what was its phosphorylation enrichment?
Resp: 0.436

Req: Sample FTFDPYSEEDP [IL2RB_Y387_YF] — what was its phosphorylation enrichment?
Resp: 1.18

* * *

Entries and their phosphorylation enrichment
biological target: Hck (UniProt P08631); experiment: phosphorylation enrichment, bacterial display (enrichment ratio); higher = better substrate or ligand; peptides without Tyr show the background
Sequence (P08631 whole entry, looked up): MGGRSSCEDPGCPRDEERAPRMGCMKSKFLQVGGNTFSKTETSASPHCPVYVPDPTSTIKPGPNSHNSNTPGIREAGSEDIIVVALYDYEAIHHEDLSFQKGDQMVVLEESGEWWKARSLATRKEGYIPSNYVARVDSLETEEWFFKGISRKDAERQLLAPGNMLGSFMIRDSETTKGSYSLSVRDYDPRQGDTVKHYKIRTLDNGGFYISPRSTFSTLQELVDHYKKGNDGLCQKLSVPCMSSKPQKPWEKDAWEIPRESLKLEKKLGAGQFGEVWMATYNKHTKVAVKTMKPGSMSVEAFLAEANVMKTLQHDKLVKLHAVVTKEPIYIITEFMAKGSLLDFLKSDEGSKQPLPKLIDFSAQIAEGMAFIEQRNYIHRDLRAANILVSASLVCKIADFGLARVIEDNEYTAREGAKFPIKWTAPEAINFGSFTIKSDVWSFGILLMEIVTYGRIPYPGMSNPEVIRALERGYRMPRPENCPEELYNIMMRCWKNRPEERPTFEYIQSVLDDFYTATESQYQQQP
// return a plain number; no unit text

In the examples that follow, each entry is paired with its recorded phosphorylation enrichment.
>>> df
                     sequence_entry          parameter_measured  recorded_number
0         VFGEEYEEQPR [ZMYM2_Y1033]  phosphorylation enrichment            0.526
1  PSQRHYVFFFS [PTEN_Y174_R173H_YF]  phosphorylation enrichment            0.712
2        KVNKIYFPDFI [LIG3_Y767_YF]  phosphorylation enrichment            0.543
3     SVTCTCSPALN [TP53_Y126_Y126C]  phosphorylation enrichment            0.526

Req: Sample FLENFYDLKKD [MMP3_Y42_YF] — what was its phosphorylation enrichment?
Resp: 1.92

Req: Sample RVQKRYILDNV [RCN1_Y115_F117L] — what was its phosphorylation enrichment?
Resp: 0.366

* * *

test system: c-Src; test: phosphorylation enrichment, bacterial display (enrichment ratio); higher = better substrate or ligand; peptides without Tyr show the background
Entries and their phosphorylation enrichment
// return a plain number; no unit text

In the examples that follow, each entry is paired with its recorded phosphorylation enrichment.
In [3]: df
Out[3]:
                         sequence_entry  study_system  recorded_number
0            IGRHAYGDQFR [IDH1_Y135_YF]         c-Src            0.407
1          SGIYQYNIAKF [FOXL2_Y83_I84N]         c-Src             3.79
2               NFYEYYVDDPP [GCHFR_Y48]         c-Src              4.3
3  AEVDTYCRHNF [HLA-DRB1_Y107_A103E_YF]         c-Src            0.509
4          VEDHDYEGGIG [TKT_Y564_Y563D]         c-Src            0.624

Req: Sample RVQKRYILDNV [RCN1_Y115_F117L] — what was its phosphorylation enrichment?
Resp: 0.409

Req: Sample SAVTGYRVNVI [FN1_Y937_D940N] — what was its phosphorylation enrichment?
Resp: 0.386

Req: Sample LDYNEYFRDLN [HPRT1_Y198] — what was its phosphorylation enrichment?
Resp: 0.649

Req: Sample FDNPVCQKTTE [LDLR_Y828_Y828C] — what was its phosphorylation enrichment?
Resp: 0.523

* * *

molecular target: FGFR1 (UniProt P11362); experiment: phosphorylation enrichment, bacterial display (enrichment ratio); higher = better substrate or ligand; peptides without Tyr show the background
Sequence (P11362 whole entry, looked up): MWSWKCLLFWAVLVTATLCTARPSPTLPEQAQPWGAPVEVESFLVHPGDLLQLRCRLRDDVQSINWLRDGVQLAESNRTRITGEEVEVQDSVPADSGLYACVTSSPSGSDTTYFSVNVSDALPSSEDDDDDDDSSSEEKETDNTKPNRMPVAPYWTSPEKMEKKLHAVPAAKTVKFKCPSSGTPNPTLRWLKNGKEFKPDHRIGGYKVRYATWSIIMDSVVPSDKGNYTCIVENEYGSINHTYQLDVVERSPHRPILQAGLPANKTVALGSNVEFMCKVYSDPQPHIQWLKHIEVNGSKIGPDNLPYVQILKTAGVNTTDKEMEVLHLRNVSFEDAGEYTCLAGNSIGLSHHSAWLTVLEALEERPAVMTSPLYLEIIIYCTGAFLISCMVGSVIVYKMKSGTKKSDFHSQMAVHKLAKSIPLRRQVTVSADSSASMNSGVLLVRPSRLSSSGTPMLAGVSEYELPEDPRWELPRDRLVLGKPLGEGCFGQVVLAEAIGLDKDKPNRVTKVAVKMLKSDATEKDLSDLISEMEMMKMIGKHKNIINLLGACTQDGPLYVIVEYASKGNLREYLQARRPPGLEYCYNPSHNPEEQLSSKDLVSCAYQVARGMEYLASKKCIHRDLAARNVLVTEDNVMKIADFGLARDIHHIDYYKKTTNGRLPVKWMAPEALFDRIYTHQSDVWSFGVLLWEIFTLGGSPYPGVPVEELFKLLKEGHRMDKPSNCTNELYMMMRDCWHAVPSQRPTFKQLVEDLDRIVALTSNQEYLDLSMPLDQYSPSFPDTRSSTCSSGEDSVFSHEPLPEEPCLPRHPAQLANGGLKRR
Entries and their phosphorylation enrichment
// return a plain number; no unit text

In the examples that follow, each entry is paired with its recorded phosphorylation enrichment.
In [3]: df
Out[3]:
                  sequence_entry  recorded_number
0  QNTVDYYDLYG [PTPN11_Y62_G60V]             18.4
1         GRLVEYDIDEV [SMS_Y134]            0.494
2   VDTFWYKFLKP [EPM2A_Y86_R91P]            0.463

Req: Sample FDAHIYEGCVI [PRKCD_Y64_R67C] — what was its phosphorylation enrichment?
Resp: 0.563

Req: Sample QDLTDYLMKIL [ACTA2_Y190_R185Q] — what was its phosphorylation enrichment?
Resp: 0.807

* * *

Entries and their phosphorylation enrichment
molecular target: EPHB2 (UniProt P29323); assay: phosphorylation enrichment, bacterial display (enrichment ratio); higher = better substrate or ligand; peptides without Tyr show the background
Sequence (P29323 whole entry, looked up): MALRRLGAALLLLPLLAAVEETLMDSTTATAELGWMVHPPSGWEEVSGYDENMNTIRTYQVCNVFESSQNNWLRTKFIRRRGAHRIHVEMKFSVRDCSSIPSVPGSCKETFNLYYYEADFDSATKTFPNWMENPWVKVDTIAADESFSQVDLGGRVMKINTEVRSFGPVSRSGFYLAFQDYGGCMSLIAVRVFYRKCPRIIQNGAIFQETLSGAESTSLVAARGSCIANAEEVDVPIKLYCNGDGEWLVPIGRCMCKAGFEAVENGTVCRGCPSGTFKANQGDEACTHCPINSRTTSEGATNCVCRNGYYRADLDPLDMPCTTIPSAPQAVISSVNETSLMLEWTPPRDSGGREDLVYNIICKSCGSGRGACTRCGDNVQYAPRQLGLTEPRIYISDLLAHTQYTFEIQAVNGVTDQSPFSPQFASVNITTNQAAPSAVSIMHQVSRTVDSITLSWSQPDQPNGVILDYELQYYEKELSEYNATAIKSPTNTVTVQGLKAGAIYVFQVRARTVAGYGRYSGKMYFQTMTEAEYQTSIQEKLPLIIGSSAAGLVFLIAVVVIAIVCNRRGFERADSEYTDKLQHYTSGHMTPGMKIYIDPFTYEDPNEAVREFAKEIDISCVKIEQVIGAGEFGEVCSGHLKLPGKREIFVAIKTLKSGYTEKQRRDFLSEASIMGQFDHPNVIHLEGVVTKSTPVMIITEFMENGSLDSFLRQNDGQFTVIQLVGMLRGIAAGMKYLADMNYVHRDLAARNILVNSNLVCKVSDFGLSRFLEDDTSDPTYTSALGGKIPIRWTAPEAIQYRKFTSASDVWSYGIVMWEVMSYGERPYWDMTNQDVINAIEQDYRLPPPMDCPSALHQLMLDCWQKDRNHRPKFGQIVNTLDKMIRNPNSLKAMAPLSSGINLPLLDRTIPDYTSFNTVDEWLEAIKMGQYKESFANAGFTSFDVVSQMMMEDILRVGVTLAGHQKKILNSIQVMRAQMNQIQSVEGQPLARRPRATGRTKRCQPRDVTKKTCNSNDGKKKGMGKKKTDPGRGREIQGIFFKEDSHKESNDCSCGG
// return a plain number; no unit text

In the examples that follow, each entry is paired with its recorded phosphorylation enrichment.
>>> df
                   sequence_entry  recorded_number
0  GRPLSYWLTGC [LYZL6_Y140_F139S]            0.664
1        SASQEYHIVKK [PDZD2_Y557]            0.527
2       LFEDRYLLGTS [ASS1_Y87_YF]             1.98
3   PSQRRNVYYYS [PTEN_Y174_Y174N]            0.657
4     FKRAVYCIIGR [NUP93_Y391_YF]            0.617
5         ILCTVYAFKTR [GRM3_Y754]            0.478

Req: # value lookup — system EPHB2 (UniProt P29323), readout phosphorylation enrichment, item QQLQGYVPSNF [FRK_Y99_I100V_YF]
Resp: 0.664

Req: # value lookup — system EPHB2 (UniProt P29323), readout phosphorylation enrichment, item LHNLFYQLEAE [PKP2_Y616_S615F]
Resp: 1.9

Req: # value lookup — system EPHB2 (UniProt P29323), readout phosphorylation enrichment, item GGYTCYSDGKK [PROS1_Y266_C267S]
Resp: 0.561

Req: # value lookup — system EPHB2 (UniProt P29323), readout phosphorylation enrichment, item PTFKHYANSTQ [SLC12A3_Y70_E68K_YF]
Resp: 0.506

Req: # value lookup — system EPHB2 (UniProt P29323), readout phosphorylation enrichment, item NGTVTYAIIAG [CDH23_Y1672_V1675I]
Resp: 1.12

* * *

molecular target: Hck (UniProt P08631); assay: phosphorylation enrichment, bacterial display (enrichment ratio); higher = better substrate or ligand; peptides without Tyr show the background
Binary classification by phosphorylation enrichment, with 8 as an inclusive lower bound for True; all other cases are False.

In [3]: df
Out[3]:
             sequence_entry  label_class
0  KALKQYRAGPS [DDX27_Y763]        False

Req: Does the sequence LLREWYLPDPF [SIX3_Y225_Q227P_YF] have recorded phosphorylation enrichment that is 8 or more?
Resp: False

Req: Does the sequence VVHGSYDEIEG [SEC24A_Y263_S261G] have recorded phosphorylation enrichment that is 8 or more?
Resp: False

Req: Does the sequence PLYSKYWPNHI [GREB1L_Y1560_R1558S] have recorded phosphorylation enrichment that is 8 or more?
Resp: True

Req: Does the sequence PIYEGYGLPHA [ACTA1_Y171_A172G] have recorded phosphorylation enrichment that is 8 or more?
Resp: True

* * *

target: MERTK (UniProt Q12866); assay: phosphorylation enrichment, bacterial display (enrichment ratio); higher = better substrate or ligand; peptides without Tyr show the background
Sequence (Q12866 whole entry, looked up): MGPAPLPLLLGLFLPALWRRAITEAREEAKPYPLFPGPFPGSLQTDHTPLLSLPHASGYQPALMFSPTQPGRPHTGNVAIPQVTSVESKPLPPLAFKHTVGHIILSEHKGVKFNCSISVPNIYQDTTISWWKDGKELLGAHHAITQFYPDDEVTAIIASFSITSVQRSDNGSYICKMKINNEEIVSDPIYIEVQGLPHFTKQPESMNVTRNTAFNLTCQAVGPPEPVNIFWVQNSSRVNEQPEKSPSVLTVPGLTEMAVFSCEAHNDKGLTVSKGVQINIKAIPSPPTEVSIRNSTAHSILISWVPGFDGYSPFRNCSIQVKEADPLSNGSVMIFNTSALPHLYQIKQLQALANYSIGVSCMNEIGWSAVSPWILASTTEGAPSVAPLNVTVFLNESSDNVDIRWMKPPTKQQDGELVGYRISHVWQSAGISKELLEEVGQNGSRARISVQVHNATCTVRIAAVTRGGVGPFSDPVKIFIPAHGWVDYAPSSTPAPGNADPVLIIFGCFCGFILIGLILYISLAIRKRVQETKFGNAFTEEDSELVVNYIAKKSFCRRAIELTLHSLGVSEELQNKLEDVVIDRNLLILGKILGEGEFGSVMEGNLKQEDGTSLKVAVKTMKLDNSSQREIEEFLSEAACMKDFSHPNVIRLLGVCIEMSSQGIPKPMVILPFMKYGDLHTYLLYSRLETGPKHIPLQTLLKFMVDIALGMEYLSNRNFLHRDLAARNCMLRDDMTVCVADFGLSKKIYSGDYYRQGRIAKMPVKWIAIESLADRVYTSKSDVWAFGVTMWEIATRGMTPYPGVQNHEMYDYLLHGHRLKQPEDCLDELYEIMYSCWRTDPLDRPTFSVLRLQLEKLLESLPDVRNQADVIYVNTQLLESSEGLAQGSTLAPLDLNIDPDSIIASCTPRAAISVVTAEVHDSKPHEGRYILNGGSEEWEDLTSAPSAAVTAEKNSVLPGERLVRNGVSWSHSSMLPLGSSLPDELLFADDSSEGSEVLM
The class of a record is decided solely by its measured phosphorylation enrichment; consult bottom: < 0.4; middle: ≥ 0.4 and < 0.6; top: ≥ 0.6

Req: Please report the category associated with TEDELYQLSLQ [RASGRP2_Y378] , nothing else.
Resp: middle

Req: Please report the category associated with IGRHAYGDQFR [IDH1_Y135_YF] , nothing else.
Resp: bottom

Req: Please report the category associated with TTPAVYARVTK [CTRB2_Y246_A250T] , nothing else.
Resp: top

Req: Please report the category associated with ETGNLYIAKVE [CNTN4_Y180] , nothing else.
Resp: bottom
